These measurements were taken from patent US11458138B2.

target: LATS1 (Homo sapiens (Human), UniProt O95835); experiment: LATS1 biochemical assay (Table 1A, Compound Examples 1-290; method in the earlier part)
Sequence (O95835 whole entry, looked up): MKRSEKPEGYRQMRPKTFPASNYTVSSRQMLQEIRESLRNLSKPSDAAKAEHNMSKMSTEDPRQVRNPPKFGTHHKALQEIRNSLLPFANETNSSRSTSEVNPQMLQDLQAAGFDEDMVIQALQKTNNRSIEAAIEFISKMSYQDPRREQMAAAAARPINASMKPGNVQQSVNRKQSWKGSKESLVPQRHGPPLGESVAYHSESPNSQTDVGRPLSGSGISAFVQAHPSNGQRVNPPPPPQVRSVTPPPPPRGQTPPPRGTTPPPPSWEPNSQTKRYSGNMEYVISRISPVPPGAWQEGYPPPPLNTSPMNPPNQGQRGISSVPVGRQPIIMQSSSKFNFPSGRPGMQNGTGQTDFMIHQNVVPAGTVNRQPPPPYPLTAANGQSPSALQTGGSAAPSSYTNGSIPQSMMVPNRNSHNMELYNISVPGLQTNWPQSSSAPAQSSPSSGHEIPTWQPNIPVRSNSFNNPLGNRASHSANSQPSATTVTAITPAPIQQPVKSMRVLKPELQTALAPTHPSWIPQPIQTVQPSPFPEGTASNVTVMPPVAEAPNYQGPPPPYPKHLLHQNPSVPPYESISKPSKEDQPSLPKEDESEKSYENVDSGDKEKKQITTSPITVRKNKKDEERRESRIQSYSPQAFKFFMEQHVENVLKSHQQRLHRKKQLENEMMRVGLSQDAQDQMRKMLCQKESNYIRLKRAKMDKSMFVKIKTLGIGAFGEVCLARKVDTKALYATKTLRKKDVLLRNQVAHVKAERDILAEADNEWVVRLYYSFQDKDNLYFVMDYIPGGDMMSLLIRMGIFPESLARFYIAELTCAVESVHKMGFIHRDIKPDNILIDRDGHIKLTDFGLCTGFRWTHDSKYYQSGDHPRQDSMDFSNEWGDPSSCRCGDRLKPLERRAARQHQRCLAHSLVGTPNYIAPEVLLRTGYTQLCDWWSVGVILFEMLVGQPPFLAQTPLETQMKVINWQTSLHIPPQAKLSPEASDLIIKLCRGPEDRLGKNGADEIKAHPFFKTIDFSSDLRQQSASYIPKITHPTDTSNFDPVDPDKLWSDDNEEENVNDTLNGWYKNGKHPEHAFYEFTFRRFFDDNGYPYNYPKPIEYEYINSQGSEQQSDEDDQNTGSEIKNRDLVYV
Sequence (Q7L9L4 whole entry partner, looked up): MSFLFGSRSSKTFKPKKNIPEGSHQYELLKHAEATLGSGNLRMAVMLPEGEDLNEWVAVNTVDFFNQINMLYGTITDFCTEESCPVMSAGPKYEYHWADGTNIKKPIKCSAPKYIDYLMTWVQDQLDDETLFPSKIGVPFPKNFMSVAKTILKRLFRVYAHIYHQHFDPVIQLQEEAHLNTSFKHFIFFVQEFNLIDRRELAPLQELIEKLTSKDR
pIC50: −log10 of the molar value.
measuredProperty: pIC50

Completed entries (count: 5):
molecule	pIC50
C[C@@](Nc1nc(-c2ccncc2)nc2cnccc12)(C(=O)O)C(F)(F)F	7.39
CC1(Nc2nc(-c3c[nH]nn3)nc3cnccc23)CC1	6.49
CCCNc1nc(-c2ccncc2Cl)nc2cnccc12	7.31
CC(C)(C)Nc1cc(-c2ccnc(N)c2)nc2cnccc12	7.89
Cc1n[nH]cc1-c1nc(NC2(C)CC2)c2ccncc2n1	8.70

(I) CC(C)(CN1CCOCC1)Nc1cc(-c2ccncc2F)nc2cnccc12
(II) CN(C)CCC(C)(C)Nc1cc(-c2ccncc2)nc2cnccc12
(III) CC(C)(C)Nc1cc(-c2ccnc3[nH]ccc23)nc2cnccc12
[Q] Please list the entries, largest pIC50 first. Could you list the labels in the order requested?
[A] III, II, I
(III: 8.70, II: 8.10, I: 7.52)

(A) CC(C)(C)Nc1nc(-c2ccncc2)nc2cncc(Cl)c12
(B) CCCNc1nc(-c2c[nH]nc2C(F)(F)F)nc2cnccc12
[Q] # argmax over pIC50 for candidates A and B # respond with the chosen item's label
[A] B

(I) CC(Nc1nc(-c2ccncc2)nc2cnccc12)c1ccccc1 (centres unmarked)
(II) CC(C)N(C)c1nc(-c2ccncc2)nc2cnccc12
(III) CC(C)(Nc1nc(-c2ccncc2)nc2cnccc12)C(F)(F)F
(IV) CC(C)(COC(C)(C)C)Nc1nc(-c2ccncc2)nc2cnccc12
[Q] Could you please sort these 4 entries by pIC50 from high to low? # format: label list in the order the request specifies
[A] III, II, IV, I

(A) CC(C)(C)Nc1nc(-c2ccncc2)nc2cnccc12
(B) CCN(CC)c1cc(-c2ccncc2F)nc2cnccc12
(C) COCCC(C)(C)Nc1nc(-c2ccncc2)nc2cnccc12
[Q] Rank by pIC50 (largest to smallest). Please, when replying, give the labels in the order that was requested.
[A] A, C, B

###

This listing pairs compounds with measured IC50.
target: LATS1 (Homo sapiens (Human), UniProt O95835); assay: LATS1 biochemical assay (Table 1A, Compound Examples 1-290; method in the earlier part)

compoundSmiles	targetEntity	IC50
CCCNc1nc(-c2cn(C)c3ncccc23)nc2cnccc12	LATS1 (Homo sapiens (Human), UniProt O95835)	> 2500 nM

[Q] I'd like to know its IC50. The compound in question is CC(C)S(=O)(=O)Nc1nc(-c2ccncc2)nc2cnccc12
[A] > 2500 nM

[Q] May I ask what IC50 has been recorded for CC(C)(C)Nc1nc(-c2cc(Cl)ncc2C(F)(F)F)nc2cnccc12 ?
[A] > 833 nM

[Q] Look up IC50 for this compound: CC1(Nc2nc(-c3nn[nH]n3)nc3cnccc23)CC1
[A] > 10000 nM

###

biological target: LATS1 (Homo sapiens (Human)); experiment: LATS1 biochemical assay (Table 1A, Compound Examples 1-290; method in the earlier part)
pIC50: −log10 of the molar value.
measuredProperty: pIC50

compound	targetEntity	valueMeasured
CCN(C)c1nc(-c2ccncc2)nc2cnccc12	LATS1 (Homo sapiens (Human))	8.52

(P) COC(=O)[C@H]1C[C@@H](Nc2nc(-c3ccncc3)nc3cnccc23)C1
(Q) CC(C)(C)Nc1nc(-c2ccnc(N)c2)nc2cnccc12
[Q] Between P and Q , which one has the lower reported pIC50 value? The response must carry the label of the picked entry.
[A] P

(1) COCCC(C)(C)Nc1cc(-c2ccncc2)nc2cnccc12
(2) CC1CCCCN1CC(C)(C)Nc1nc(-c2ccncc2)nc2cnccc12 (stereo not drawn)
[Q] Sorting ascending by pIC50, which comes first: 1 or 2 ? Respond using the label that marks the chosen record.
[A] 2
